Test system: Adenosine A2A receptor (Homo sapiens, UniProt P29274)
Sequence (P29274 whole entry): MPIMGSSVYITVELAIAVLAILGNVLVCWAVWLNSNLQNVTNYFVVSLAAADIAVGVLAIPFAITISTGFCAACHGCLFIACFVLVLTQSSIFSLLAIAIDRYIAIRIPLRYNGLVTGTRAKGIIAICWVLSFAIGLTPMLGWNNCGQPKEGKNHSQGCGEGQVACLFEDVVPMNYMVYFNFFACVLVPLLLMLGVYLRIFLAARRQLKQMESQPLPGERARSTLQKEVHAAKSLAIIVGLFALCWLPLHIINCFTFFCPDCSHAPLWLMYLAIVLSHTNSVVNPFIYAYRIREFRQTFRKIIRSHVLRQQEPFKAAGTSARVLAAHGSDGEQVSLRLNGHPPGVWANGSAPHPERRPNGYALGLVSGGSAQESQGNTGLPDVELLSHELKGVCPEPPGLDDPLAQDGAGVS
Protocol description: Adenosine A2A receptor competitive binding assay (Tag-lite HTRF)
Applied conditions: Tag-lite adenosine A2A receptor ligand binding, 2 h room temperature; values separated by / are repeat determinations
Metric name: IC50 (µM)

For orientation, consider the following solved cases.
# Compound smiles, Reading unit, Reported
data = [
    ("Cc1cc(-c2c(OCCc3ccc(N4CCN(C5COC5)CC4)cc3)nc(N)nc2-c2ccc(F)cc2)cc(C(F)F)n1", "µM", 0.031),
    ("COC(=O)NCc1nc(N)nc(-c2ccc(F)cc2)c1-c1cc(C)nc(C(F)F)c1", "µM", 0.047),
]

I. CCNC(=O)N(CC)CCOc1nc(N)nc(-c2ccc(F)cc2)c1-c1cc(C)nc(C(F)F)c1
II. Cc1cc(-c2c(OCc3nnn(C(C)C)n3)nc(N)nc2-c2ccc(F)cc2)cc(C(F)F)n1
III. CCN(CC)C(=O)CCc1nc(N)nc(-c2ccccc2)c1-c1cc(C)nc(C(F)(F)F)c1
IV. Cc1cc(-c2c(CN(C)C)nc(N)nc2-c2ccccc2)cc(C(F)(F)F)n1
V. Cc1cc(-c2c(OC3COC3)nc(N)nc2-c2ccc(F)cc2)cc(C(F)F)n1
Please put the entries in order of rising IC50. Answer by listing the labels in the requested order. I, II, V, III, IV

====

Test system: Adenosine A2A receptor (Homo sapiens)
Protocol description: cAMP assay in 293A cells stably expressing the adenosine A2A receptor (CGS21680 stimulation, HTRF)
Assay type: cell-based
Parameters: expressed in transfected cells; host or cells: 293A cells (Invitrogen, Cat# R705-07) infected with A2A-expressing lentivirus (custom packaged by Biosettia), puromycin selected
Applied conditions: 293A-A2AR cells, 0.1% BSA, 8 nM CGS; values separated by / are repeat determinations; read-out: cAMP (nM) 0.1% BSA, 8 nM CGS
Description: A 293A cell line (Invitrogen, Cat# R705-07) stably expressing the adenosine A2A receptor was generated in house. Briefly, 293A cells were seeded in 6-well plate and infected with A2A expressing lentivirus (custom packaged by Biosettia) and selected with puromycin (1 ug/ml). […] After 1 h incubation at room temperature, plates were read in CIARIOstar plate reader (BMG Labtech) using the HTRF detection mode.
Metric name: IC50 (nM)

# Compound, Metric name, Reading unit, Reported
data = [
    ("Cc1cc(-c2c(OCc3ncc(S(C)(=O)=O)n3C(C)C)nc(N)nc2-c2ccc(F)cc2)cc(C(F)F)n1", "IC50", "nM", 9.7),
    ("Cc1cc(-c2c(OCCCS(C)(=N)=O)nc(N)nc2-c2ccc(F)cc2)cc(C(F)F)n1 (stereo not shown)", "IC50", "nM", 7.1),
    ("Cc1cc(-c2c(OCC(=O)NCC(C)(F)F)nc(N)nc2-c2ccc(F)cc2)cc(C(F)F)n1", "IC50", "nM", 8.4),
]

a. Cc1cc(-c2c(OCC(=O)N(CCO)CCO)nc(N)nc2-c2ccc(F)cc2)cc(C(F)F)n1
b. Cc1cc(-c2c(O[C@@H](C)CO)nc(N)nc2-c2ccc(F)cc2)cc(C(F)F)n1
c. COC(=O)NCC1(COc2nc(N)nc(-c3ccc(F)cc3)c2-c2cc(C)nc(C(F)F)c2)CCOCC1
d. Cc1cc(-c2c(OCc3nccn3C3CCC3)nc(N)nc2-c2ccc(F)cc2)cc(C(F)F)n1
Ranking field: IC50; order: falling. Please express your ranking as an ordered list of the labels. c, a, b, d
(c: 231 nM, a: 8.3 nM, b: 3.2 nM, d: 1.5 nM)

====

Test system: Adenosine A2A receptor (Homo sapiens, UniProt P29274)
Protocol description: Adenosine A2A receptor competitive binding assay (Tag-lite HTRF)
Applied conditions: Tag-lite adenosine A2A receptor ligand binding, 2 h room temperature; values separated by / are repeat determinations
pIC50: −log10 of the molar value.
Metric name: pIC50

A selection of reference data follows.
# Compound, Test system, Reported
records = [
    ("Cc1cc(-c2c(Oc3ccccc3)nc(N)nc2-c2ccc(F)cc2)cc(C(F)F)n1 [Example 47]", "Adenosine A2A receptor (Homo sapiens, UniProt P29274)", 7.67),
    ("CCN(CC)C(=O)CNc1nc(N)nc(-c2ccccc2)c1-c1cc(C)nc(C(F)(F)F)c1 [Example 30]", "Adenosine A2A receptor (Homo sapiens, UniProt P29274)", 8.00),
    ("Cc1cc(-c2c(OCCn3ccccc3=O)nc(N)nc2-c2ccc(F)cc2)cc(C(F)F)n1 [Example 122]", "Adenosine A2A receptor (Homo sapiens, UniProt P29274)", 8.74),
    ("Cc1cc(-c2c(OCCCN3CCN(c4ccc(F)cc4F)CC3)nc(N)nc2-c2ccccc2)cc(C(F)(F)F)n1 [Example 6]", "Adenosine A2A receptor (Homo sapiens, UniProt P29274)", 7.13),
    ("CNC(=O)NCCOc1nc(N)nc(-c2ccc(F)cc2)c1-c1cc(C)nc(C(F)F)c1 [Example 113]", "Adenosine A2A receptor (Homo sapiens, UniProt P29274)", 8.05),
]

1. Cc1cc(-c2c(OCC(=O)NC(C)C)nc(N)nc2-c2ccc(F)cc2)cc(C(F)F)n1 [Example 41]
2. CCN(CC)C(=O)COc1nc(N)nc(-c2ccccc2)c1-c1cc(C)nc(C(F)F)c1 [Example 15]
3. CC(=O)N1CCC(Oc2ccc(CCOc3nc(N)nc(-c4ccccc4)c3-c3cc(C)nc(C(F)(F)F)c3)cc2)C1 (stereo not shown) [Example 25]
4. Cc1cc(-c2c(CNCC(F)(F)F)nc(N)nc2-c2ccccc2)cc(C(F)(F)F)n1 [Example 24]
Please list the entries, largest pIC50 first. Answer by naming the labels in the order asked. 2, 1, 3, 4

====

Test system: UniProt P29274
Protocol description: cAMP assay in 293A cells stably expressing the adenosine A2A receptor (CGS21680 stimulation, HTRF)
Format: cell-based
Set-up: expressed in transfected cells; host or cells: 293A cells (Invitrogen, Cat# R705-07) infected with A2A-expressing lentivirus (custom packaged by Biosettia), puromycin selected
Applied conditions: 293A-A2AR cells, 0.1% BSA, 1 uM CGS; values separated by / are repeat determinations; read-out: cAMP (nM) 0.1% BSA, 1 uM CGS
Metric name: IC50 (nM)

1. Cc1cc(-c2c(NCc3cccc(CO[C@H]4CCOC4)n3)nc(N)nc2-c2ccccc2)cc(C(F)(F)F)n1
2. Cc1cc(-c2c(OCc3nc(C)n[nH]3)nc(N)nc2-c2ccc(F)cc2)cc(C(F)F)n1
// select label with min value of measured IC50 from [ 1 , 2 ] Reply briefly: the label of your chosen item. 2
(2: 3310 nM, 1: 23100 nM)

====

Test system: Adenosine A2A receptor (Homo sapiens)
Protocol description: cAMP assay in 293A cells stably expressing the adenosine A2A receptor (CGS21680 stimulation, HTRF)
Format: cell-based
Design: expressed in transfected cells; host or cells: 293A cells (Invitrogen, Cat# R705-07) infected with A2A-expressing lentivirus (custom packaged by Biosettia), puromycin selected
Applied conditions: 293A-A2AR cells, 0.1% BSA, 1 uM CGS; values separated by / are repeat determinations; read-out: cAMP (nM) 0.1% BSA, 1 uM CGS
Metric name: IC50 (nM)

# Compound, IC50 (nM)
measured = [
    ("CCn1ccnc1COc1nc(N)nc(-c2ccc(F)cc2)c1-c1cc(C)nc(C(F)F)c1 [Example 105]", 10),
]

a. Cc1cc(-c2c(OCCN(C)c3cccc(OCCO)n3)nc(N)nc2-c2ccc(F)cc2)cc(C(F)F)n1 [Example 154]
b. CNC(=O)COc1nc(N)nc(-c2ccccc2)c1-c1cc(C)nc(C(F)(F)F)c1 [Example 1]
c. Cc1cc(-c2c(OCC3CCOCC3)nc(N)nc2-c2ccc(F)cc2)cc(C(F)F)n1 [Example 55]
Sort ascending by IC50. // respond by listing labels in the order requested a, c, b

====

Test system: Adenosine A2A receptor (Homo sapiens, UniProt P29274)
Protocol description: Adenosine A2A receptor competitive binding assay (Tag-lite HTRF)
Applied conditions: Tag-lite adenosine A2A receptor ligand binding, 2 h room temperature; values separated by / are repeat determinations
pIC50: −log10 of the molar value.
Metric name: pIC50

Worked examples follow.
# Compound smiles, Metric name, Reported
records = [
    ("Cc1cc(-c2c(OCC(=O)NC3CCOCC3)nc(N)nc2-c2ccc(F)cc2)cc(C(F)F)n1", "pIC50", 6.53),
    ("CCN(CC)C(=O)COc1nc(N)nc(-c2ccc(C)o2)c1-c1cc(C)nc(C(F)(F)F)c1", "pIC50", 7.86),
    ("Cc1cc(-c2c(OCC(=O)NC3CC3)nc(N)nc2-c2ccc(F)cc2)cc(C(F)F)n1", "pIC50", 8.28),
    ("Cc1cc(-c2c(OCCc3ccc(C(C)(C)O)cc3)nc(N)nc2-c2ccc(F)cc2)cc(C(F)F)n1", "pIC50", 7.66),
    ("Cc1cc(-c2c(OCCc3ccc(NS(C)(=O)=O)cc3)nc(N)nc2-c2ccc(F)cc2)cc(C(F)F)n1", "pIC50", 7.42),
]

I. CCNC(=O)Nc1ccc(CCOc2nc(N)nc(-c3ccc(F)cc3)c2-c2cc(C)nc(C(F)F)c2)cc1
II. COC(=O)NCC1(COc2nc(N)nc(-c3ccc(F)cc3)c2-c2cc(C)nc(C(F)F)c2)CCOCC1
// which entry reports the smaller pIC50, I or II ? // output: label of the selected item II
(II: 6.20, I: 7.57)

Data origin, for the record: patent US20210355104A1
